test system: OVCAR-5 ovarian; assay: NCI tumour cell line growth inhibition, 48 h
Measure Name: GI50

- Molecule: "C=C1C(=O)O[C@@H]2/C=C(/C)C3=CC(=O)[C@@](C)(C[C@H](OC(=O)/C(C)=C\\C)[C@@H]12)O3"
  Test Target: "OVCAR-5 ovarian"
  Result: "1.67 µM"
- Molecule: "COc1ccc(/C=N/NC2=NC3C(S2)N(C)C(=O)N3C)cc1 (centres undefined)"
  Test Target: "OVCAR-5 ovarian"
  Result: "7.96 µM"
- Molecule: "CS(=O)(=O)c1nccc(-c2c(-c3cccc(OCc4ccc(Cl)c(C(F)(F)F)c4)c3)nc3sccn23)n1"
  Test Target: "OVCAR-5 ovarian"
  Result: "8.78 µM"
- Molecule: "Nc1nc(N)c2c(n1)NC(c1ccccc1)CC(c1ccc(Nc3nc(NCCO)nc(Nc4ccc(Cl)cc4)n3)cc1)=N2 (centres undefined)"
  Test Target: "OVCAR-5 ovarian"
  Result: "1.94 µM"

====

Each entry below lists one item and its recorded GI50 value.
system: UACC-257 melanoma; test: NCI tumour cell line growth inhibition, 48 h

- Molecule: "CN1CCC(n2cc(Nc3ncc4c(=O)n(-c5c(Cl)cccc5Cl)cc(Br)c4n3)cn2)CC1"
  GI50: "1270 nM"
- Molecule: "CS(=O)(=O)c1nccc(-c2c(-c3cccc(OCc4ccc(Cl)c(C(F)(F)F)c4)c3)nc3sccn23)n1"
  GI50: "4040 nM"
- Molecule: "Nc1nc(N)c2c(n1)NC(c1ccccc1)CC(c1ccc(Nc3nc(NCCO)nc(Nc4ccc(Cl)cc4)n3)cc1)=N2 (centres undefined)"
  GI50: "1900 nM"
- Molecule: "COc1ccc(/C=N/NC2=NC3C(S2)N(C)C(=O)N3C)cc1 (centres undefined)"
  GI50: "5010 nM"
